- METHOD_DESCRIPTION: binders of probe aHhip on microarray, primary screen, stem cell growth factor project, biochemical, small-molecule microarray, fluorescence 635/667 (AID 1087);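 also: score merges spot fluorescence at 667nm with spot signal to noise ratio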
- DETAILS: higher = more signal

# COMPOUND_STRUCTURE_STRING, composite z-score
data = [
    ("CN(C)C(=O)[C@@]1(Cc2ccccc2CN=[N+]=[N-])COC(c2ccc(OCCCO)cc2)=N1", -0.134),
    ("COC(=O)[C@@]1(Cc2ccc(OC)cc2)[C@H]2c3cc(C(=O)N(C)C)[nH]c3C[C@H]2CN1C(=O)c1ccccc1", -0.0905),
    ("COCCOC(=O)N1C(=O)[C@@]2(c3cc(C#Cc4ccc(OC)cc4)ccc31)[C@H](c1ccc(OCCO)cc1)N1[C@H](c3ccccc3)[C@H](c3ccccc3)OC(=O)[C@H]1[C@@H]2C(=O)NC[C@H](O)c1ccccc1", 0.28),
]

* * *

- METHOD_DESCRIPTION: S6 kinase pathway phospho-S6 level changes – cell-based, A549, cytoblot, luminescence, serum-stimulated, primary screen (AID 1158);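 also: serum-stimulated A549 lung adenocarcinoma cells; signal is phosphorylated S6 detected by cytoblot immunostaining with HRP secondary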
- DETAILS: 5 h, higher = more signal
// label = True if z-score is not less than -0.1, otherwise False

# COMPOUND, CLASS_NAME
rows = [
    ("Cc1ccc(S[C@]2(C(=O)NCCCN(C)C)CC(=O)N(C3Cc4ccccc4C3)[C@@H]2c2ccc(CO)cc2I)cc1", "True"),
    ("O=C1C2C=CC(C(O)c3ccc([N+](=O)[O-])cc3)N(Nc3ccccc3F)C2C(=O)N1c1ccccc1 (centres undefined)", "False"),
    ("C[N+](C)(C)CCCCNC(=O)[C@H]1C[C@H]2C(=O)N[C@@H](Cc3ccccc3)C(=O)N2[C@H]1c1cccc(OCCO)c1", "True"),
    ("COC(=O)C1(Cc2ccccc2)C=C2C(=C(C)C(=O)C2C)CN1 (centres undefined)", "True"),
    ("OCCCC1=CC(c2ccc(CN3CCCC3)cc2)N(Cc2cccc(OC(F)(F)F)c2)CC1 (centres undefined)", "False"),
    ("CC(C)(C)N1CC=CC23O[C@@H]4C=CCCOC(=O)C4[C@H]2C(=O)N(CCCCCCO)[C@@H]3C1=O (some centres undefined)", "True"),
    ("CCOC(=O)C1=C[C@@H](C(C)(C)C)N(S(=O)(=O)c2ccc(C)cc2)[C@H]1c1ccc(C#N)cc1", "False"),
    ("CC1=C([C@H](O)CCc2ccccc2)[C@H](CO)n2c(=O)n(-c3ccccc3)c(=O)n2C1", "True"),
    ("C=CCC(OC(C)=O)[C@@H]1[C@@H](N(Cc2ccc(-c3cccc(C(F)(F)F)c3)o2)C(=O)Cc2ccc(F)cc2)c2cc(OCCCO)ccc2N1C(=O)Cc1ccc2ccccc2c1 (some centres undefined)", "False"),
    ("CC(C)C(O)C1C=CC2C(=O)NC(=O)C2N1Nc1ccccn1 (centres undefined)", "False"),
    ("COc1ccc([Si](C)(C)[C@H]2[C@H](CCO)O[C@@]3(C(=O)N(Cc4ccc(NC(=O)[C@H](C)O)cc4)c4ccccc43)[C@@H]2C)cc1", "True"),
    ("COC(=O)[C@@]1(Cc2ccc(OC)cc2)[C@H]2c3cc(C(=O)N(C)C)[nH]c3C[C@H]2CN1C(=O)c1ccccc1", "False"),
    ("CCOC(=O)c1cn(C[C@H](Cc2ccccc2)NC(=O)N[C@H](CO)CCc2oc(C(C)=O)c(C(=O)OC)c2C(=O)OC)nn1", "True"),
    ("C[N+](C)(C)CCCC[C@@H]1NC(=O)[C@@H]2C[C@H](C(=O)NCc3ccc(F)cc3)[C@H](c3ccc(O)cc3)N2C1=O", "True"),
    ("C=C(CCCC)/C(=C/C[C@H](OC(=O)c1ccncc1)c1ccc(OCCO)cc1)c1cnc2ccccc2c1", "False"),
    ("C=C(C)[C@@H]1CC=C(C(O)C2C=CC3C(=O)N(c4ccccc4)C(=O)C3N2Nc2ccc([N+](=O)[O-])cc2)CC1 (some centres undefined)", "False"),
    ("C=C(/C(=C/C[C@@H](OC(C)=O)c1cccc(OCCO)c1)c1cnc2ccccc2c1)C(C)C", "True"),
    ("COCCOC(=O)N1C(=O)[C@@]2(c3cc(C#CCC(C(=O)OC)C(=O)OC)ccc31)[C@H](C(=O)Nc1nc3ccccc3s1)[C@H]1C(=O)O[C@H](c3ccccc3)[C@H](c3ccccc3)N1[C@@H]2c1ccc(OCCO)cc1", "False"),
    ("[N-]=[N+]=NCc1ccccc1[C@@H]1OC(c2ccc(OCCCO)cc2)=N[C@]1(Cc1ccccc1N=[N+]=[N-])C(=O)NCC(O)CO (some centres undefined)", "True"),
    ("COc1ccc(C(=O)Nc2cccc(CN3C(=O)[C@]4(O[C@H](CC(=O)N5Cc6ccccc6C[C@H]5CO)[C@@H]([Si](C)(C)c5ccc(OC)cc5)[C@@H]4C)c4ccccc43)c2)cc1", "True"),
    ("COC(=O)C(CC#Cc1ccc2c(c1)[C@]1(C(=O)N2)[C@H](C(=O)NC[C@H](O)c2ccccc2)[C@H]2C(=O)O[C@H](c3ccccc3)[C@H](c3ccccc3)N2[C@@H]1c1ccccc1OCCO)C(=O)OC", "True"),
    ("COC(=O)[C@H](Cc1ccccc1)N1CC2=CCCC=C[C@@H]2[C@H]1[C@H](O)Cc1ccccc1", "False"),
    ("C=CCN1C(=O)[C@@]2(O[C@@H](CCn3cc([C@H](O)c4ccccc4)nn3)[C@H]([Si](C)(C)c3ccc(OC)cc3)[C@H]2C)c2cc(N3C(=O)c4cccc5cccc3c45)ccc21", "True"),
    ("CC(C)(C)N1CC=CC23O[C@@H]4C=CCOC(=O)[C@@H]4[C@H]2C(=O)N(CCO)[C@@H]3C1=O (some centres undefined)", "False"),
    ("COC(=O)[C@@]1(Cc2ccc(OC)cc2)[C@H]2c3cc(C(=O)N4CCCC4)n(CCn4cc([N+](=O)[O-])nc4C)c3C[C@H]2CN1C(=O)c1ccccc1", "False"),
    ("CC(C)NC(=O)[C@@H]1c2ccccc2C(=O)N(Cc2ccc(OC(F)(F)F)cc2)[C@H]1c1ccc(CO)cc1", "True"),
    ("O=C(NCCN1CCOCC1)[C@@H]1c2ccccc2C(=O)N(Cc2ccc(OC(F)(F)F)cc2)[C@H]1c1ccc(CO)cc1", "False"),
    ("O=C1NC(=O)C2C1C=CC(C(O)c1ccc([N+](=O)[O-])cc1)N2Nc1ccccn1 (centres undefined)", "False"),
    ("COc1ccc(C(O)C2C=CC3C(=O)N(c4ccccc4)C(=O)C3N2Nc2ccc([N+](=O)[O-])cc2)c2ccccc12 (centres undefined)", "False"),
]

* * *

composite z-score for assorted molecules
- TEST_SYSTEM: Torsin-1A-interacting protein 2 (Homo sapiens) (UniProt Q8NFQ8)
- Sequence (Q8NFQ8 whole entry, looked up): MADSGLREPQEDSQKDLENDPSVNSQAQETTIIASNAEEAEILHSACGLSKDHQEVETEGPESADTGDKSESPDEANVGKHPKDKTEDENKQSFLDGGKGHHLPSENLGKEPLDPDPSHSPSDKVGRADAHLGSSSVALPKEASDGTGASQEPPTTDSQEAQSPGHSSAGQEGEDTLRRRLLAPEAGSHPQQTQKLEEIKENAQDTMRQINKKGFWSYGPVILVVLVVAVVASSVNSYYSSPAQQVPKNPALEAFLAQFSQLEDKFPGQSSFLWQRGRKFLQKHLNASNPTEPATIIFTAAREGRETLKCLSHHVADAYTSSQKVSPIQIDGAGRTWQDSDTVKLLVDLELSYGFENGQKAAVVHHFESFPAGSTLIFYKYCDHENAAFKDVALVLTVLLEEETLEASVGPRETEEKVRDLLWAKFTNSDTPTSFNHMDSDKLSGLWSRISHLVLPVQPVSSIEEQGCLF
- METHOD_DESCRIPTION: small molecules binding lysate-expressed LULL1 – cell lysate, human LULL1 lysate, 635/667 nm fluorescence, primary screen (AID 1092);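 also: probe is lysate of COS7 cells overexpressing human LULL1; score merges per-feature 667 nm fluorescence with signal-to-noise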
- DETAILS: small-molecule microarray, hLULL1 lysate binding, 635 nm fluorescence; higher = more signal
ASSAY_READOUT: composite z-score

# COMPOUND_STRUCTURE_STRING, READOUT_NUMBER
records = [
    ("COc1ccc([Si](C)(C)[C@H]2[C@H](CC(=O)N3CCC[C@H]3CO)O[C@@]3(C(=O)N(Cc4ccc(N5CCCCC5=O)cc4)c4ccccc43)[C@@H]2C)cc1", 2.51),
    ("CC(C)(C)OC(=O)CC[C@@]1(C(=O)NCCN2CCOCC2)N=C(c2ccc(OCCCO)cc2)O[C@@H]1c1ccccc1CN=[N+]=[N-]", 2.96),
    ("C=C(CCCC)C(=O)CC[C@H](OC(=O)c1ccccc1-c1ccccc1C(=O)O)c1ccc(OCCO)cc1", 1.65),
    ("CCOC(=O)C[C@H]1[C@H](OC(=O)c2ccccc2-c2ccccc2)[C@@H](NC(=O)C2CCCCC2)c2cc(OCCCO)ccc2N1C(=O)c1ccc2ccccc2n1", 1.34),
    ("O=C1N(Cc2ccccc2)c2ccccc2C[C@@]12COC(c1ccc(OCCCO)cc1)=N2", 3),
    ("COC(=O)[C@@]1(Cc2ccccc2)[C@H]2c3cc(C(=O)N4CCCC4)n(Cc4ccc(OC)c(OC)c4)c3C[C@H]2CN1C(=O)c1ccccc1", 3.5),
    ("COc1ccc([Si](C)(C)[C@H]2[C@H](CCO)O[C@@]3(C(=O)N(Cc4ccc(NC(=O)[C@H](C)O)cc4)c4ccccc43)[C@@H]2C)cc1", 2.19),
    ("O=C1O[C@@H](c2ccccc2)[C@@H](c2ccccc2)N2[C@@H](c3ccc(OCCO)cc3)[C@]3(C(=O)Nc4ccc(C#CC5(O)CCCCCC5)cc43)[C@@H](C(=O)Nc3nc4ccccc4s3)[C@H]12", 2.96),
    ("COc1ccc(C(=O)Nc2cccc(CN3C(=O)[C@]4(O[C@H](CC(=O)N5Cc6ccccc6C[C@H]5CO)[C@@H]([Si](C)(C)c5ccc(OC)cc5)[C@@H]4C)c4ccccc43)c2)cc1", 0.906),
    ("O=C1[C@@H]2[C@@H](CC(COc3ccccc3)=C([C@H](O)CCc3ccccc3)[C@@H]2CO)C(=O)N1Cc1ccccc1", 1.39),
    ("NCCCCCCNC(=O)[C@@H]1C[C@@H]2C(=O)N3CCC[C@H]3C(=O)N2[C@@H]1c1cccc(OCCO)c1", 1.74),
    ("COC(=O)[C@H](Cc1ccc(O)cc1)N[C@@H](/C=C/C1CC1)[C@H](O)Cc1ccccc1", -0.243),
    ("COc1ccc([Si](C)(C)[C@@H]2[C@@H](CC(=O)N3Cc4ccccc4C[C@H]3CO)O[C@]3(C(=O)N(Cc4ccc(N5CCOC5=O)cc4)c4ccccc43)[C@H]2C)cc1", 1.56),
    ("CCOC(=O)C1=C[C@@H](C(C)(C)C)N(S(=O)(=O)c2ccc(C)cc2)[C@H]1c1ccc(C#N)cc1", 2.88),
]
